These entries and their values trace back to ChEMBL document CHEMBL4806956.

# Measurement notes: Ratio of drug level in brain to plasma in C57BL/6 mouse at 10 mg/kg, po measured after 60 mins by LC/MS/MS analysis
# Format: ADME, organism-based
# Conditions used: brain and plasma, read-out: BPR
Attribute measured: Kp at 1 h

[
  {
    "Smiles structure": "NC(=O)c1cccc2c1CCN2c1cc(Cc2ccc(F)c(Cl)c2)ccn1",
    "Kp at 1 h": 7.76
  }
]

A = NC(=O)c1cccc2c1CCN2c1cc(Cc2cncc(C(F)(F)F)c2)ccn1
B = O=C(NCCO)c1cccc2c1CCN2c1cc(Cc2cc(F)c(F)c(F)c2)ccn1
# input Pick one: A or B . Which has the bigger Kp at 1 h number? Bench note: the answer is the label of the chosen record.
# output A
(A: 4.67, B: 3)
